These entries and their values trace back to paper PMC5835975.

Set-up: species or system mice
CONDITION_DETAILS: mouse, in vivo, iv, activity accumulation in the kidney
Where a SMILES comes first, the peptide text is derived from it. Side-chain parts run from the residue outwards. [ ]: non-standard residue; d: D form. The star is where a group is joined. NOTA = O=C(O)CN1CCN(CC(=O)O)CCN(CC(=O)*)CC1; dTyr(3-I) = N[C@H](Cc1ccc(O)c(I)c1)C(=O)O; 2Nal = N[C@@H](Cc1ccc2ccccc2c1)C(=O)O; dNMeOrn = CN[C@H](CCCN)C(=O)O; 4Amb = NCc1ccc(C(=O)O)cc1

COMPOUND	UNITS_LABEL	tissue uptake at 1.5 h
CN1C(=O)[C@@H](Cc2ccc(O)c(I)c2)NC(=O)CNC(=O)[C@H](Cc2ccc3ccccc3c2)NC(=O)[C@H](CCCNC(=N)N)NC(=O)[C@H]1CCCNC(=O)c1ccc(CNC(=O)CN2CCN(CC(=O)O)CCN(CC(=O)O)CC2)cc1 [[^64Cu]NOTA-pentixather, metal not drawn] (cyclo([dTyr(3-I)][dNMeOrn]([4Amb-NOTA])R[2Nal]G))	%ID/g	3.8
